target: NLRP3 (Homo sapiens, UniProt Q96P20); construct: To generate HMDM, human monocytes are isolated from buffy coat blood; endogenous in cells; test: HMDM NLRP3 inflammasome assay, IL-1β secretion (Table 2); conditions: human monocyte derived macrophages
Sequence (Q96P20 whole entry): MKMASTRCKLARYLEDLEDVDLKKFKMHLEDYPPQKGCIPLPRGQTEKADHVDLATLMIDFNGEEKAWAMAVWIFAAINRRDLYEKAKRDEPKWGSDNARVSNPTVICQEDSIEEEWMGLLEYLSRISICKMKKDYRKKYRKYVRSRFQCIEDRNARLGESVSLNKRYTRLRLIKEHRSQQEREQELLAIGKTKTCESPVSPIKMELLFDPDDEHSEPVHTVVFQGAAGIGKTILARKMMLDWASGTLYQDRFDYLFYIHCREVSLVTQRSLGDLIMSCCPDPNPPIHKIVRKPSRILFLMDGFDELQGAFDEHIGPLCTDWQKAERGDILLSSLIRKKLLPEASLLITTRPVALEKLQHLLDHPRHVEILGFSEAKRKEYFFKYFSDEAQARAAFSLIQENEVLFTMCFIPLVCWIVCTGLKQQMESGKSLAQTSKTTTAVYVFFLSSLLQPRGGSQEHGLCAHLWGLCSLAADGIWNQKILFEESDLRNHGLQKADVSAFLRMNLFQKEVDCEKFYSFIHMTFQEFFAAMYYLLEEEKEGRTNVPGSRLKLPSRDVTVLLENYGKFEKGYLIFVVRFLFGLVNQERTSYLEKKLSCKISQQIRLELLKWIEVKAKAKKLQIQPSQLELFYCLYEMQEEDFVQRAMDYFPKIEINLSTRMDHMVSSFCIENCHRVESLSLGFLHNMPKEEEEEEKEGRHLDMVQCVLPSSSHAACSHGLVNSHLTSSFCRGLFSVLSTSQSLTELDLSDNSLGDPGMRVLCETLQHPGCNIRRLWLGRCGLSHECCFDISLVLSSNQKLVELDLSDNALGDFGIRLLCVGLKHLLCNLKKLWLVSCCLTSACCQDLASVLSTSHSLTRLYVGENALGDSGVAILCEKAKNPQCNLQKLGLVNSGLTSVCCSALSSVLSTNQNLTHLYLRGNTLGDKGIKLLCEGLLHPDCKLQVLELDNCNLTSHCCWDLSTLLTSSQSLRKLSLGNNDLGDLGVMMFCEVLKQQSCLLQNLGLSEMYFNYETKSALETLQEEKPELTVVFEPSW
pIC50: −log10 of the molar value.
Listed below: pIC50 values for each entry.

| smilesEntry | pIC50 |
| --- | --- |
| O=C(Nc1c2c(cc3c1CCC3)CCC2)NS(=O)(=O)c1cccc(C(=O)O)c1 | > 6.00 |
| C#CCNC(=O)CCc1ccc(S(=O)(=O)NC(=O)Nc2c3c(cc4c2CCC4)CCC3)cc1 | > 6.00 |

* * *

molecular target: NLRP3 (Mus musculus); construct: Macrophages from C57BL/6 mice were differentiated from bone marrow; endogenous in cells; assay: NLRP3 inflammasome assay: IL-1β secretion from LPS-primed, ATP-stimulated murine BMDM (Table 1); details: ATP 2.5 mM 1 h, ELISA, read-out: IC50 (NLRP3 inhibitory activity)
Sequence (Q8R4B8 whole entry): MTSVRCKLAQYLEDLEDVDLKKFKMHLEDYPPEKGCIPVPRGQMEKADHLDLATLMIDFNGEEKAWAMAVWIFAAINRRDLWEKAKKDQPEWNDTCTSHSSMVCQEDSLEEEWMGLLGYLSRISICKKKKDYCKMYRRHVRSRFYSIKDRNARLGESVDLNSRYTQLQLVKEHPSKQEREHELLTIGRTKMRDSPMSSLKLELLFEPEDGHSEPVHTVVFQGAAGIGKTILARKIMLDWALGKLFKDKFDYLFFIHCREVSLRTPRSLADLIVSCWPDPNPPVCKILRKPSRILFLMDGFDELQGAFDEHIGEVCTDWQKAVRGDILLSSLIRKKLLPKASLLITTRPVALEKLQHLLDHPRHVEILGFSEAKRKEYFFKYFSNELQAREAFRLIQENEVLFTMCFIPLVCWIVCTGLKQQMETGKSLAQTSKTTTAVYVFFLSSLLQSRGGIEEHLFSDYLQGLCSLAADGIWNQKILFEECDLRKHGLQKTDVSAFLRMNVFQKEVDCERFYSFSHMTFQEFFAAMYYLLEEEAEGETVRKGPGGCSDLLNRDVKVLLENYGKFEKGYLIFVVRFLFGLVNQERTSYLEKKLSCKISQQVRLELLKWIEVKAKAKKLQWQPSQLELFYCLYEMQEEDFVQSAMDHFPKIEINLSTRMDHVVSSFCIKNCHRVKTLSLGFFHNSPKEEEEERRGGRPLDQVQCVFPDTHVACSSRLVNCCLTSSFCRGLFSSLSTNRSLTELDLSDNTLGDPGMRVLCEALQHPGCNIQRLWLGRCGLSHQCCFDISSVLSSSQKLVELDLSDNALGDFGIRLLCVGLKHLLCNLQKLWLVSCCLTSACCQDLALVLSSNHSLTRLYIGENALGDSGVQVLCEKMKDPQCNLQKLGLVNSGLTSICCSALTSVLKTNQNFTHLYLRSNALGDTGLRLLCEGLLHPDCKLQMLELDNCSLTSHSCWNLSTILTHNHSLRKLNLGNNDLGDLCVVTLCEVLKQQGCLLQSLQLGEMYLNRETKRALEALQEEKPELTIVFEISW
pIC50: −log10 of the molar value.
Listed below: pIC50 values for each entry.
recordedEndpoint: pIC50

| compound | measuredTarget | val |
| --- | --- | --- |
| O=C(Nc1c2c(cc3c1CCC3)CCC2)NS(=O)(=O)c1ccc([N+](=O)[O-])cc1 | NLRP3 (Mus musculus) | > 6.00 |
| CC(=O)c1ccc(S(=O)(=O)NC(=O)NC2CCCCC2)cc1 [CE1, Acetohexamide] | NLRP3 (Mus musculus) | < 3.70 |
| Cc1cnc(C(=O)NCCc2ccc(S(=O)(=O)NC(=O)Nc3c4c(cc5c3CCC5)CCC4)cc2)cn1 | NLRP3 (Mus musculus) | > 6.00 |
| CC(=O)c1ccc(S(=O)(=O)NC(=O)Nc2c3c(cc4c2CCC4)CCC3)cc1 | NLRP3 (Mus musculus) | > 6.00 |
| Nc1ccc(S(=O)(=O)NC(=O)Nc2c3c(cc4c2CCC4)CCC3)cc1 | NLRP3 (Mus musculus) | > 6.00 |
| O=C(Nc1c2c(cc3c1CCC3)CCC2)NS(=O)(=O)c1ccc2c(c1)CCC2 | NLRP3 (Mus musculus) | > 6.00 |
| Cc1cnc(C(=O)NCCc2ccc(S(=O)(=O)NC(=O)NC3CCCCC3)cc2)cn1 [CE3, Glipizide] | NLRP3 (Mus musculus) | < 3.70 |
| COc1ccc2c(c1)C(=O)N(CCc1ccc(S(=O)(=O)NC(=O)NC3CCCCC3)cc1)C(=O)C2(C)C | NLRP3 (Mus musculus) | < 4.30 |
| Cc1cc(C(=O)NCCc2ccc(S(=O)(=O)NC(=O)NN3CCCCCC3)cc2)no1 [CE4, Glisoxepide] | NLRP3 (Mus musculus) | < 4.30 |
| CCC1=C(C)CN(C(=O)NCCc2ccc(S(=O)(=O)NC(=O)N[C@H]3CC[C@H](C)CC3)cc2)C1=O [CE6, Glimepiride] | NLRP3 (Mus musculus) | < 4.30 |

Source of measurements: patent US11840543B2
